The reported measurements were obtained from ChEMBL document CHEMBL4715835.

Would you kindly list mortality for each of these compounds?
- Test system: MDA-MB-435
- protocol-description: Toxicity in human MDA-MB-435 cells assessed as mortality at 3 uM measured after 24 hrs by MTT assay relative to control
- Type: cell-based
- condition-label: mda-mb-435, 24 h
Numbers only, in %.

compound | target-of-assay | measurement-unit | mortality
CCCCCCCCCCCCCCCCCCCC(O)Cc1ccccn1 (stereo not drawn) | MDA-MB-435 | % | 20

Batch lookup, mortality per entry.
1. CCCCCCCC/C=C\CCCCCCC[C@@H](O)C[C@@H]1C=CCCN1C
2. CCCCCCCCCCCCCCCCCCC[C@H](O)C[C@@H]1C=CCCN1C
3. CCCCCCCCCCCCCCCCCCCC(Cc1ccccn1)OC (stereo not drawn)
4. CCCCCCCC/C=C\CCCCCCCC(Cc1ccccn1)OC (stereo not drawn)

1. 80
2. 30
3. 20
4. 25
